- testName: self-splicing fitness, log relative to wild type (ln ratio); higher = more splicing; Tetrahymena group I intron in knt gene, E. coli kanamycin selection, DiMSum; sequences stand for … in CUCUCU…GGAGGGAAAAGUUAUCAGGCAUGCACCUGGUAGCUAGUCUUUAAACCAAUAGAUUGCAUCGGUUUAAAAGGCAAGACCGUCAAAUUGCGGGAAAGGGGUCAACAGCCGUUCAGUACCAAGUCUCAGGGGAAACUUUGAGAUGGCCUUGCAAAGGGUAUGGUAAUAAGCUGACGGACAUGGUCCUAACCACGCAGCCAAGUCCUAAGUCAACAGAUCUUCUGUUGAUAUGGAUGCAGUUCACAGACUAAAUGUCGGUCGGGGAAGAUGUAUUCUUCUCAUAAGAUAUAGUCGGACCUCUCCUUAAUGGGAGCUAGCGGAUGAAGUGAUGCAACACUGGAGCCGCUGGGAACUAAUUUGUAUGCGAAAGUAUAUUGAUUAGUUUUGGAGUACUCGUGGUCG;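 also: selection with 25 µg/mL kanamycin versus none on LB agar overnight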
- conditionNotes: 30 °C
Use -2 as the dividing line for self-splicing fitness (ln), with the line itself on the Yes side and lower values as No.

Known results for sequences:
> print(dat)
          sequencechain  assignedclass
1  UCUCAGCAAUAUUACGGCAU             No
2  UGCUAGCAAUAUUACGAGUU            Yes
3  UGCCAGCAAUAUUACGAGCC            Yes
4  GAUAAGCAAUAUUACGCCAU             No

-- ask Reported self-splicing fitness (ln) at or above -2? CGAUAGCAAUAUUACGUUUU
-- reply No

-- ask Reported self-splicing fitness (ln) at or above -2? CGACAGCAAUAUUACGGACU
-- reply Yes

-- ask Reported self-splicing fitness (ln) at or above -2? UCGAAGCAAUAUUACGUGCA
-- reply Yes
